# Lookup of reported IC50 keyed by entry
system: antiserum produced against the ergonovine KLH conjugate; assay: Competitive ELISA; format: binding, rabbit; conditions: predicted value for 50% maximal absorbance, linear regression; antiserum 1:1000, HSA-ergonovine coated plates; read-out: Concentration (μM) of 50% A
Endpoint name: IC50 (µM)

Molecule: C[C@@H](CO)NC(=O)[C@@H]1C=C2c3cccc4[nH]cc(c34)C[C@H]2N(C)C1 [ergonovine]
Endpoint result: 0.05
//
Molecule: CC1=C[C@@H]2c3cccc4[nH]cc(c34)C[C@H]2N(C)C1 [agroclavine]
Endpoint result: 3.2
//
Molecule: CC(C)C[C@H]1C(=O)N2CCC[C@H]2[C@]2(O)O[C@](NC(=O)[C@@H]3C=C4c5cccc6[nH]cc(c56)C[C@H]4N(C)C3)(C(C)C)C(=O)N12 [ergocryptine]
Endpoint result: 0.59
//
Molecule: CC(C)[C@H]1C(=O)N2CCC[C@H]2[C@]2(O)O[C@@](C)(NC(=O)[C@@H]3C=C4c5cccc6[nH]cc(c56)C[C@H]4N(C)C3)C(=O)N12 [ergovaline]
Endpoint result: 0.15
//
Molecule: CN1C[C@H](CO)C=C2c3cccc4[nH]cc(c34)C[C@H]21 [lysergol]
Endpoint result: 3.7
//
Molecule: CN1C[C@H](C(=O)N[C@]2(C)O[C@@]3(O)[C@@H]4CCCN4C(=O)[C@H](Cc4ccccc4)N3C2=O)C=C2c3cccc4[nH]cc(c34)C[C@H]21 [ergotamine]
Endpoint result: 0.4
